Target: Cdk9/cyclinT1 (Homo sapiens (Human), UniProt P50750)
Sequence (P50750 whole entry): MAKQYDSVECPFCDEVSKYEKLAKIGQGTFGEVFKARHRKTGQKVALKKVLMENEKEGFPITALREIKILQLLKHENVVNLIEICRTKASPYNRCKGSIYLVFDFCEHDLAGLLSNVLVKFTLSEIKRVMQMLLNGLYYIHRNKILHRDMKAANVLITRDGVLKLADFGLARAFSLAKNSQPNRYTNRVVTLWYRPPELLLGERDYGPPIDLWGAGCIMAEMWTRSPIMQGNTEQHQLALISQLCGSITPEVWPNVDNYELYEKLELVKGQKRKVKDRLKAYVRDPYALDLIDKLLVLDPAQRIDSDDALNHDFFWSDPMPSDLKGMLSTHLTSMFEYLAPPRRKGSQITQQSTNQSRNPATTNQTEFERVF
Sequence (O60563 whole entry partner): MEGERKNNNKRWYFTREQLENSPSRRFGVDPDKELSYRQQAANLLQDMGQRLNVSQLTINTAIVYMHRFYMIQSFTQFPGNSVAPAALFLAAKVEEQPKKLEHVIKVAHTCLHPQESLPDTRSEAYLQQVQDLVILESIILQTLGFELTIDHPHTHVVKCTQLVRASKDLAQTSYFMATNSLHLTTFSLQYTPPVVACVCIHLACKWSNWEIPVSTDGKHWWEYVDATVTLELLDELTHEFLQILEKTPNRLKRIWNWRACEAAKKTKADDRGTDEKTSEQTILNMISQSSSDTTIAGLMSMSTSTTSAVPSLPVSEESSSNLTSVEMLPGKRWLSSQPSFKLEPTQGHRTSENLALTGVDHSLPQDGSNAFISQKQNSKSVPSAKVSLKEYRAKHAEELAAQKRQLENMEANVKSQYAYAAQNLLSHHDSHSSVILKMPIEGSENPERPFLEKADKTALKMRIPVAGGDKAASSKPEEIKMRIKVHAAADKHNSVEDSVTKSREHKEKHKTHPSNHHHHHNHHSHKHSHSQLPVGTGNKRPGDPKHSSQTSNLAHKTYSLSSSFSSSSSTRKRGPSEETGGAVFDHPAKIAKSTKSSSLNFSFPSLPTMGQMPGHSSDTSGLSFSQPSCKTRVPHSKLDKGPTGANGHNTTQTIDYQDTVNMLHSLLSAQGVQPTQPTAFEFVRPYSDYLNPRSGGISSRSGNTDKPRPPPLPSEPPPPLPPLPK
Experiment: Cdk9/CyclinT1 IMAP Protocol (fluorescence polarization kinase assay)
Conditions: Table 2; generated using one of the two Cdk9/cyclinT1 assays (IMAP or Alpha Screen), not specified which; unit inferred
Experimental: Cdk9/CyclinT1 IMAP Protocol The biological activity of the compounds of the invention can be determined using the assay described below. Cdk9/cyclinT1 is purchased from Millipore, cat #14-685. The final total protein concentration in the assay 4 nM. […] Fluorescence polarization (FP) is used for detection. […] The binding of the IMAP Progressive Binding Reagent changes the fluorescence polarization of the 5TAMRA-cdk7tide peptide which is measured at an excitation of 531 nm and FP emission of 595 nm. […]
Property: IC50 (nM)

Would you please look over these solved cases?
N[C@H]1CC[C@H](Nc2cc(-c3cccc(NCc4cccc(F)c4)n3)c(Cl)cn2)C1; 7.94
COCCN[C@H]1CC[C@H](Nc2cc(-c3cccc(NCC4CCOCC4)n3)c(Cl)cn2)CC1; 8.93
Fc1cc(F)cc(CNc2cccc(-c3cc(N[C@H]4CC[C@H](N5CCCC5)CC4)ncc3Cl)n2)c1; 7.95
NC[C@H]1CC[C@H](Nc2cc(-c3cccc(NCc4ccncc4)n3)c(Cl)cn2)CC1; 7.95
N[C@H]1CC[C@H](Nc2cc(-c3cccc(NCc4cccc(OC(F)F)c4)n3)c(Cl)cn2)CC1; 8.91

P = N[C@H]1CC[C@H](Nc2cc(-c3cncc(NC[C@H]4CCCOC4)n3)c(Cl)cn2)CC1
Q = O=C([C@H]1CC[C@@H](Nc2cc(-c3cccc(NCc4cccc(F)c4)n3)c(Cl)cn2)C1)N1CCCC1
QUERY: Of P and Q , which carries the smaller reported IC50 figure? Field: selected label. Fill in the label of the entry you choose.
RESULT: P
(P: 7.94 nM, Q: 14.2 nM)
